# assayProtocol: Cmax in dog plasma after oral dose (1 mg/kg)
# Type: ADME, organism-based, Canis lupus familiaris
# Design: dose 1 mg/kg, route oral
endpointName: Cmax

                                 smilescode  reportedmeasurement
0  Cc1cnc(NCCc2ccccc2)c(=O)n1CC(=O)NCc1ccc2c(N)noc2c1           1030 ng/mL
1  Cc1cnc(NCC2(c3ccccc3)CCC2)c(=O)n1CC(=O)NCc1ccc2c(N)noc2c1            620 ng/mL
2  Cc1cnc(NCCc2ccc(F)cc2)c(=O)n1CC(=O)NCc1ccc2c(N)noc2c1            640 ng/mL
3  Cc1cnc(NCC(F)(F)c2ccccc2)c(=O)n1CC(=O)NCc1ccc2[nH]nc(N)c2c1            960 ng/mL
4  Cc1cnc(NCCc2ccccc2)c(=O)n1CC(=O)NCc1ccc2[nH]nc(N)c2c1           1030 ng/mL

====

# assayProtocol: Cmax in dog plasma after oral dose (1 mg/kg)
# Type: ADME, organism-based, Canis lupus familiaris
# Design: dose 1 mg/kg, route oral
Measured Cmax values are reported for all entries that follow.
endpointName: Cmax

>>> df
                                 smilescode  reportedmeasurement
0  Cc1cnc(NCC(F)(F)c2ccccc2)c(=O)n1CC(=O)NCc1ccc2c(N)noc2c1           1200 ng/mL
1  Cc1cnc(NCC2(c3ccc(F)cc3)CC2)c(=O)n1CC(=O)NCc1ccc2[nH]nc(N)c2c1            880 ng/mL
2  COc1cccc(S(=O)(=O)Nc2cccn(CC(=O)NCc3ccc4[nH]nc(N)c4c3)c2=O)c1            930 ng/mL
3  COc1cccc(S(=O)(=O)Nc2cccn(CC(=O)NCc3ccc4c(N)[nH]nc4c3)c2=O)c1            350 ng/mL
4  COc1ccc(C2(CNc3ncc(C)n(CC(=O)NCc4ccc5[nH]nc(N)c5c4)c3=O)CC2)cc1           1370 ng/mL
5  Cc1ccc(NS(=O)(=O)c2ccc3c(c2)CCO3)c(=O)n1CC(=O)NCc1ccc2[nH]nc(N)c2c1            230 ng/mL
6  Cc1ccc(NS(=O)(=O)Cc2ccc(Cl)cc2)c(=O)n1CC(=O)NCc1ccc2[nH]cnc2c1            170 ng/mL
7  Cc1ccc(NS(=O)(=O)Cc2ccccc2)c(=O)n1CC(=O)NCc1ccc2onc(N)c2c1            240 ng/mL
8  Cc1ccc(NS(=O)(=O)Cc2ccccc2)c(=O)n1CC(=O)NCc1ccc2c(N)[nH]nc2c1            580 ng/mL

====

# assayProtocol: Cmax in dog plasma after oral dose (1 mg/kg)
# Type: ADME, organism-based, Canis lupus familiaris
# Parameters: dose 1 mg/kg, route oral
Measured log10(Cmax) values are reported for all entries that follow.
endpointName: log10(Cmax) (log10 of the value in ng/mL)

In [3]: df
Out[3]:
                                  smilescode  reportedmeasurement
 0  Cc1cnc(NC[C@@H](C)c2ccccc2)c(=O)n1CC(=O)NCc1ccc2[nH]cnc2c1                 2.68
 1  Cc1ccc(NS(=O)(=O)Cc2ccccc2)c(=O)n1CC(=O)NCc1ccc2c(N)noc2n1                 2.45
 2  Cc1cnc(NCC2(c3ccc(F)cc3)CC2)c(=O)n1CC(=O)NCc1ccc2c(N)noc2c1                 2.93
 3  Cc1cnc(NCC2(c3ccccn3)CC2)c(=O)n1CC(=O)NCc1ccc2c(N)noc2c1                 2.89
 4  COc1ccc(CCNc2ncc(C)n(CC(=O)NCc3ccc4[nH]cnc4c3)c2=O)cc1                 2.28
 5  CCc1cnc(NCCc2ccccc2)c(=O)n1CC(=O)NCc1ccc2[nH]ccc2c1                 2.49
 6  Cc1cnc(NCCc2ccccc2)c(=O)n1CC(=O)NCc1ccc2cn[nH]c2c1                 2.98
 7  Cc1nc(N)ccc1CNC(=O)Cn1c(C)cnc(NCCc2ccccc2)c1=O                 2.95
 8  Cc1cnc(NCCc2ccccc2)c(=O)n1CC(=O)NCc1ccc2[nH]nc(O)c2c1                 1.48
 9  Cc1ccc(NS(=O)(=O)Cc2ccc(Br)cc2)c(=O)n1CC(=O)NCc1ccc2c(N)noc2c1                 3.18
10  Cc1ccc(NS(=O)(=O)Cc2ccccc2)c(=O)n1CC(=O)NCc1ccc2c(N)noc2c1                 3.20
11  Cc1nc(N)ccc1CNC(=O)Cn1c(C)ccc(NS(=O)(=O)Cc2ccccc2)c1=O                 2.90
12  Cc1cnc(NCC(c2ccccc2)c2ccccc2)c(=O)n1CC(=O)NCc1ccc2c(N)noc2c1                 2.48
13  Cc1cnc(NCCc2ccccc2)c(=O)n1CC(=O)NCc1ccc2[nH]cnc2c1                 2.59
14  Cc1ccc(NS(=O)(=O)Cc2ccccc2)c(=O)n1CC(=O)NCc1ccc2[nH]ncc2c1                 2.61

====

# assayProtocol: in vivo
# measurementParameters: dog, po, 1 mg/kg
endpointName: log10 half-life (log10 of the value in min)

>>> df
                                  smilescode  reportedmeasurement
 0  CCc1cnc(NCCc2ccccc2)c(=O)n1CC(=O)NCc1ccc2[nH]ccc2c1                 1.92
 1  COc1cccc(S(=O)(=O)Nc2cccn(CC(=O)NCc3ccc4c(N)[nH]nc4c3)c2=O)c1                 2.05
 2  Cc1cnc(NCC2(c3ccc(F)cc3)CC2)c(=O)n1CC(=O)NCc1ccc2[nH]nc(N)c2c1                 2.09
 3  Cc1cnc(NCCc2ccccc2)c(=O)n1CC(=O)NCc1ccc2cn[nH]c2c1                 1.40
 4  Cc1ccc(NS(=O)(=O)Cc2ccccc2)c(=O)n1CC(=O)NCc1ccc2c(N)noc2n1                 1.56
 5  Cc1cnc(NCC(F)(F)c2ccccc2)c(=O)n1CC(=O)NCc1ccc2c(N)noc2c1                 2.29
 6  Cc1ccc(NS(=O)(=O)Cc2ccc(Br)cc2)c(=O)n1CC(=O)NCc1ccc2c(N)noc2c1                 2.04
 7  Cc1cnc(NCCc2ccccc2)c(=O)n1CC(=O)NCc1ccc2[nH]cnc2c1                 2.03
 8  Cc1ccc(NS(=O)(=O)Cc2ccccc2)c(=O)n1CC(=O)NCc1ccc2c(N)noc2c1                 1.97
 9  Cc1nc(N)ccc1CNC(=O)Cn1c(C)cnc(NCCc2ccccc2)c1=O                 2.30
10  Cc1cnc(NCCc2ccccc2)c(=O)n1CC(=O)NCc1ccc2c(N)noc2c1                 2.18
11  Cc1cnc(NCC2(c3ccccn3)CC2)c(=O)n1CC(=O)NCc1ccc2c(N)noc2c1                 2.00
12  Cc1ccc(NS(=O)(=O)Cc2ccccc2)c(=O)n1CC(=O)NCc1ccc2onc(N)c2c1                 2.12
13  Cc1cnc(NC[C@@H](C)c2ccccc2)c(=O)n1CC(=O)NCc1ccc2[nH]cnc2c1                 1.84
14  Cc1cnc(NCC2(c3ccccc3)CCC2)c(=O)n1CC(=O)NCc1ccc2c(N)noc2c1                 2.07
15  Cc1ccc(NS(=O)(=O)Cc2ccccc2)c(=O)n1CC(=O)NCc1ccc2[nH]ncc2c1                 1.56
16  COc1ccc(C2(CNc3ncc(C)n(CC(=O)NCc4ccc5[nH]nc(N)c5c4)c3=O)CC2)cc1                 1.95
17  Cc1cnc(NCCc2ccc(F)cc2)c(=O)n1CC(=O)NCc1ccc2c(N)noc2c1                 2.42
18  Cc1ccc(NS(=O)(=O)c2ccc3c(c2)CCO3)c(=O)n1CC(=O)NCc1ccc2[nH]nc(N)c2c1                 1.86
19  COc1cccc(S(=O)(=O)Nc2cccn(CC(=O)NCc3ccc4[nH]nc(N)c4c3)c2=O)c1                 2.44
20  Cc1cnc(NCC(F)(F)c2ccccc2)c(=O)n1CC(=O)NCc1ccc2[nH]nc(N)c2c1                 2.34
21  Cc1cnc(NCC2(c3ccc(F)cc3)CC2)c(=O)n1CC(=O)NCc1ccc2c(N)noc2c1                 2.11
22  Cc1ccc(NS(=O)(=O)Cc2ccccc2)c(=O)n1CC(=O)NCc1ccc2c(N)[nH]nc2c1                 1.92
